Observation type: melting point

| Compound | Result |
| --- | --- |
| Cc1ccc(S(=O)(=O)OCCCOc2ccc([N+](=O)[O-])c(CS(=O)(=O)c3cccc4ccccc34)c2)cc1 | 162 to 164 °C |
| O=C1CN2Cc3cc(OCCCCCCO)ccc3N=C2N1 | 236 to 237 °C |
| CCCCCCCCCCCCc1c[nH]c2cc(C(=O)O)ccc12 | 181 to 184 °C |
| Cn1cnc(COc2nn3c(-c4ccccc4)nnc3cc2-c2ccoc2)n1 | 241 °C |
| OCCCOc1ccc(Cl)c(Cl)c1 | 40 to 43 °C |
| O=C1c2c(F)c(F)c(F)c(F)c2C(=O)N1c1ccc(F)cc1F | 145 to 146 °C |
| CCOC(=O)c1cnc2ccc(OC)nc2c1Cl | 98 to 100 °C |
| CCCOC[C@]1(OC)CC[C@H]2[C@@H]3CCC4=CC(=O)CCC4=C3[C@@H](c3ccc(C(C)=O)cc3)C[C@@]21C | 118 to 120 °C |
| COc1ccc(N2CCN(n3ccnc3SC)CC2)cc1 | 140 °C |
| CN(C1c2cc(O)ccc2OC(C)(C)C1O)S(C)(=O)=O (stereo not given) | 204 to 206 °C |
